Entries annotated with measured normalized growth
# ASSAY DETAILS: chemical genetic growth profiling, strain panel (AID 1159580);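 further: tested at 20 µM; growth read once vehicle control cultures reached saturation at 30 °C; 1 = growth at the plate median or of vehicle wells; lower values mean less growth of the strain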
# RUN PARAMETERS: S. cerevisiae deletion strains, growth OD, locus YLR221C, strain rsa3, active compounds read low
The whole screen tested about 5,500 compounds, of which about 2,000 (36%) were called active. Inconclusive results (about 18%) are left out. The list shows a part of the results.
QUANTITY MEASURED: normalized growth

>  <MOLECULE>
Cc1c(S(=O)(=O)O)oc2c1C(=O)C(=O)c1c-2ccc2c1CCCC2(C)C

>  <NUMERIC READOUT>
0.891

$$$$
>  <MOLECULE>
Cc1coc2c1C(=O)C(=O)c1c-2ccc2c1CCCC2(C)C

>  <NUMERIC READOUT>
0.873

$$$$
>  <MOLECULE>
OCCOCCN1CCN(C2=Nc3ccccc3Sc3ccccc32)CC1

>  <NUMERIC READOUT>
1

$$$$
>  <MOLECULE>
CC(C)NC[C@H](O)COc1cccc2ccccc12

>  <NUMERIC READOUT>
0.991

$$$$
>  <MOLECULE>
O=C(O)c1ccccc1-c1c2cc(Br)c(=O)cc-2oc2[c]([Hg])c(O)c(Br)cc12

>  <NUMERIC READOUT>
1

$$$$
>  <MOLECULE>
O=C(Cn1ccnc1[N+](=O)[O-])NCCO

>  <NUMERIC READOUT>
1.02

$$$$
>  <MOLECULE>
OC(Cn1cncn1)(Cn1cncn1)c1ccc(F)cc1F

>  <NUMERIC READOUT>
0.996

$$$$
>  <MOLECULE>
CCCCNc1ccc(C(=O)OCCN(C)C)cc1

>  <NUMERIC READOUT>
0.975

$$$$
>  <MOLECULE>
CCCCC(=O)Oc1ccccc1C(=O)O

>  <NUMERIC READOUT>
1.01

$$$$
>  <MOLECULE>
CCCCOC(=O)c1ccccc1C(=O)OCCCC

>  <NUMERIC READOUT>
0.957

$$$$
>  <MOLECULE>
O=C1CC2OCC=C3CN4CC[C@]56c7ccccc7N1C5[C@H]2[C@H]3CC46 (some centres undefined)

>  <NUMERIC READOUT>
1.02

$$$$
>  <MOLECULE>
CCCCN(CCCC)CCCOC(=O)c1ccc(N)cc1

>  <NUMERIC READOUT>
0.98

$$$$
>  <MOLECULE>
CC[N+](CC)(CC)CCOc1cccc(OCC[N+](CC)(CC)CC)c1OCC[N+](CC)(CC)CC

>  <NUMERIC READOUT>
1.02

$$$$
>  <MOLECULE>
C[C@H]1COC2=C1C(=O)C(=O)c1c2ccc2c1CCCC2(C)C

>  <NUMERIC READOUT>
0.662

$$$$
>  <MOLECULE>
C[C@H]1CC[C@@H](C(C)(C)O)CC2=C1CC[C@@H]2C

>  <NUMERIC READOUT>
0.924

$$$$
>  <MOLECULE>
CCC(C)(C)C(=O)O[C@H]1C[C@@H](C)C=C2C=C[C@H](C)[C@H](CC[C@@H]3C[C@@H](O)CC(=O)O3)[C@H]21

>  <NUMERIC READOUT>
0.909

$$$$
>  <MOLECULE>
CCCCOC(=O)c1ccc(N)cc1

>  <NUMERIC READOUT>
0.841

$$$$
>  <MOLECULE>
CC[C@H](C)C(=O)O[C@H]1C[C@@H](C)C=C2C=C[C@H](C)[C@H](CC[C@@H]3C[C@@H](O)CC(=O)O3)[C@H]21

>  <NUMERIC READOUT>
1.01

$$$$
>  <MOLECULE>
CCN(CC)CCOC(=O)c1ccc(N)cc1

>  <NUMERIC READOUT>
0.958

$$$$
